tested on: Enterovirus C; test: Antiviral activity against Poliovirus infected in human HeLaS3 cells assessed as inhibition of viral replication treated 1 hr before infection measured after 2 days; assay type: functional, organism-based; details: HeLa S3
pIC50: −log10 of the molar value.
Measurement kind: pIC50

What value of measured pIC50 is listed for COC[C@H]1O[C@@H](n2ccc3c(C)ncnc32)[C@H](O)[C@@H]1O ?
< 5.00

Also Cc1nccc2c1ncn2[C@@H]1O[C@H](CO)[C@@H](O)[C@H]1O , if possible.
< 5.00

Same question for Cc1ccnc2c1ncn2[C@@H]1O[C@H](CO)[C@@H](O)[C@H]1O please.
< 5.00

---

experiment: Cytotoxicity against human HeLaS3 cells after 24 hrs by celltiter-glo assay; type: cell-based; conditions: HeLa S3, 24 h
Answer each item with its documented IC50.

Quick one: IC50 of Cc1nccc2c1ncn2[C@@H]1O[C@H](CO)[C@@H](O)[C@H]1O ?
> 100 µM

Next compound up: COC[C@H]1O[C@@H](n2ccc3c(C)ncnc32)[C@H](O)[C@@H]1O
> 100 µM

Thanks! And Cc1ccnc2c1ncn2[C@@H]1O[C@H](CO)[C@@H](O)[C@H]1O ?
> 100 µM

---

assay: Cytotoxicity against human HeLaS3 cells after 48 hrs by celltiter-glo assay; type: cell-based; settings: HeLa S3, 48 h
Field: IC50. Provide a value for each of the compounds that follow.

# lookup: IC50 of Cc1nccc2c1ncn2[C@@H]1O[C@H](CO)[C@@H](O)[C@H]1O
> 100 µM

Similarly, Cc1ccnc2c1ncn2[C@@H]1O[C@H](CO)[C@@H](O)[C@H]1O ?
> 10 µM

Same thing, different compound: COC[C@H]1O[C@@H](n2ccc3c(C)ncnc32)[C@H](O)[C@@H]1O
> 100 µM

Where do the numbers come from? From ChEMBL document CHEMBL1269004.
